Test system: HepG2
ASSAY PROTOCOL: cytotoxicity call (relative viability < 0.9)
ASSAY CONTEXT: 10 µM
Screen size: about 39,000 compounds; about 3,300 (8.5%) were called active. The list comes from a sample in which actives are over-represented; it also holds close analogues and randomly drawn compounds.
Tick one outcome: Y (active), N (inactive)

Q. Entry O=C(O)c1c(Br)c(Br)c(Br)c(Br)c1-c1c2ccc(=O)cc-2oc2cc(O)ccc12 : call = ?
A. N

Q. I would be grateful if you could indicate the recorded call for C[C@H](CO)N1C[C@H](C)[C@H](CN(C)C(=O)Nc2ccc3c(c2)OCO3)Oc2c(NC(=O)C3CCOCC3)cccc2C1=O .
A. N

Q. Query: recorded result category for C[C@H]1CCCCO[C@@H](CN(C)Cc2ccccc2)[C@@H](C)CN([C@@H](C)CO)C(=O)c2cc(NC(=O)Nc3ccc(F)cc3)ccc2O1 in this test
A. Y

Q. Could you please tell me the result logged for C[C@@H]1CN([C@H](C)CO)C(=O)c2cc(NS(=O)(=O)c3ccc(Cl)cc3)ccc2O[C@@H](C)CCCCO[C@H]1CN(C)Cc1ccc(Cl)c(Cl)c1 in this assay?
A. Y

Q. Query: recorded result category for CC(C)=Cc1ccc(C#N)c(=S)[nH]1 in this test
A. N

Q. What outcome does the record of this test show for C[C@@H]1CN([C@H](C)CO)C(=O)c2cc(NC(=O)Nc3ccc(F)cc3)ccc2O[C@@H](C)CCCCO[C@@H]1CN(C)Cc1ccccc1 ?
A. N

Q. Can you look up the reported call for COc1ccc(NC(=O)N(C)C[C@H]2OCCCC[C@H](C)Oc3ccc(NC(=O)Nc4ccc5c(c4)OCO5)cc3C(=O)N([C@H](C)CO)C[C@@H]2C)cc1 for me?
A. N

---

Tested on: HepG2
ASSAY PROTOCOL: cytotoxicity call (relative viability < 0.9)
ASSAY CONTEXT: 10 µM
Out of some 39,000 compounds screened, about 3,300 (8.5%) were called active. The list comes from a sample in which actives are over-represented; it also holds close analogues and randomly drawn compounds.
METRIC: cytotoxicity call

Solved entries:
Q. Using the record for Br.Cc1ccc(Sc2ccccc2N2CCNCC2)c(C)c1 , state its measured cytotoxicity call.
A. active

Q. Look up cytotoxicity call of Nc1cc(=O)nc(N)[nH]1 and report it.
A. inactive

Q. Determine from records and report cytotoxicity call for Cc1cc(O[C@@H](CCC(F)(F)F)c2ccc(C(=O)NCCC(=O)O)cc2)cc(C)c1-c1ccc(C(C)(C)C)cc1
A. inactive

Q. Using the record for COc1ccc(NC(=O)N(C)C[C@H]2Oc3ccc(NC(=O)CCN4CCOCC4)cc3C(=O)N([C@@H](C)CO)C[C@H]2C)cc1 , state its measured cytotoxicity call.
A. inactive

Q. Given Cc1cccc(CN2CCN(C(c3ccccc3)c3ccc(Cl)cc3)CC2)c1.Cl.Cl (stereo not drawn) , respond with its cytotoxicity call.
A. inactive

Q. Let me know recorded cytotoxicity call for Nc1ncnc2c1ncn2[C@H]1O[C@H](COP(=O)(O)O)[C@@H](O)[C@H]1O , thanks.
A. inactive

Q. Hello, please tell me recorded cytotoxicity call for this one: O=C(CN1CCOCC1)N[C@H]1CC[C@H](CCn2cc(C3CCCC3)nn2)O[C@@H]1CO
A. inactive

Q. Please report the measured cytotoxicity call for Nc1ncnc2c1ncn2CCN1CCCCC1
A. inactive

Q. Give the value of cytotoxicity call reported for the following: CC(C)OC(=O)OCOP(=O)(CO[C@H](C)Cn1cnc2c(N)ncnc21)OCOC(=O)OC(C)C
A. inactive

Q. Please supply the value of reported cytotoxicity call for the item C[C@H]1CN([C@@H](C)CO)C(=O)c2cc(NC(=O)CCN3CCOCC3)ccc2O[C@@H]1CN(C)C(=O)Nc1ccc(F)cc1
A. inactive

Fill in cytotoxicity call for each of the 8 molecules listed.
1. C[C@H](CO)N1C[C@H](C)[C@@H](CN(C)Cc2ccc(C(=O)Nc3ccccc3N)cc2)Oc2ccc(NS(=O)(=O)c3ccc(Cl)cc3)cc2C1=O
2. CN1C(=O)[C@@H]2[C@@H]3C[C@H]4[C@@H](O[C@H]1[C@H]42)[C@H]3O
3. CCS(=O)(=O)Nc1ccc2c(c1)C(=O)N(C)[C@H]1CC[C@@H](CC(=O)NCc3ccccc3F)O[C@H]1CO2
4. Nc1ncnc2c1ncn2CCO
5. COCC#Cc1cnc2c(c1)C(=O)N([C@@H](C)CO)C[C@H](C)[C@@H](CN(C)C(=O)c1cnccn1)O2
6. C[C@@H]1CN([C@@H](C)CO)C(=O)c2cc(NC(=O)Nc3ccc4c(c3)OCO4)ccc2O[C@@H](C)CCCCO[C@@H]1CN(C)S(=O)(=O)c1cccs1
7. CC(Cn1cnc2c(N)ncnc21)OCP(=O)(O)O (stereo not drawn)
8. CC(C)(C)C(=O)OCOP(=O)(COCCn1cnc2c(N)ncnc21)OCOC(=O)C(C)(C)C

A.
1. inactive
2. inactive
3. inactive
4. inactive
5. inactive
6. inactive
7. active
8. active

---

System: HepG2
ASSAY PROTOCOL: cytotoxicity call (relative viability < 0.9)
ASSAY CONTEXT: 10 µM
Screen size: about 39,000 compounds; about 3,300 (8.5%) were called active. For the sample, actives were picked, then their nearest neighbours and some compounds at random.
Please reply with one of these outcomes: active, inactive

These solved cases illustrate the format of a correct answer.
Q. Lab log entry: O.OCC1OC(OC2C(CO)OC(O)C(O)C2O)C(O)C(O)C1O (stereo not given) — outcome as called in the assay?
A. active

Q. Per the assay record, what outcome was assigned to COc1cc(OC)cc(C(=O)Nc2nc(-c3ccc4c(c3)CCN4C(=O)CN3CCOCC3)cs2)c1 ?
A. inactive

Q. Lab log entry: C[C@H]1CN([C@@H](C)CO)C(=O)c2cccc(NC(=O)Nc3ccccc3)c2O[C@@H]1CN(C)Cc1ccc(C(=O)Nc2ccccc2N)cc1 — outcome as called in the assay?
A. inactive

Q. // outcome(item) with item = C[C@@H]1O[C@@H](O[C@@H]2C=C(CO)[C@H]3[C@H](O[C@@H]4O[C@H](CO)[C@@H](O)[C@H](O)[C@H]4O)OC=C[C@H]32)[C@H](O)[C@H](O)[C@H]1OC(=O)/C=C/c1ccccc1
A. inactive

Q. Each compound tested received a call. Report the one for C[C@@H]1CN([C@H](C)CO)C(=O)Cc2cc(NC(=O)C3CC3)ccc2O[C@H]1CN(C)C(=O)Nc1ccccc1 .
A. inactive

Q. Recorded call for C[C@H]1CN([C@@H](C)CO)S(=O)(=O)c2ccc(C#CCN(C)C)cc2O[C@H]1CN(C)C(=O)c1ccccc1F ?
A. inactive

Q. Which outcome did this test record for the compound C[C@@H]1CN([C@H](C)CO)C(=O)c2cccc(NC(=O)Nc3cccc4ccccc34)c2O[C@@H]1CN(C)Cc1ccc(C(=O)Nc2ccccc2N)cc1 ?
A. inactive

Q. Given C[C@@H]1CN([C@@H](C)CO)C(=O)c2cccc(NC(=O)Nc3cccc4ccccc34)c2O[C@@H]1CN(C)Cc1ccc(C(=O)Nc2ccccc2N)cc1 , state the outcome it received in this test.
A. inactive

Next compound, please.
Q. Call for entry C=CC1=C(C(=O)O)N2C(=O)C(NC(=O)C(=NO)c3csc(N)n3)C2SC1 (stereo not given) :
A. inactive

---

Test system: HepG2
ASSAY PROTOCOL: cytotoxicity call (relative viability < 0.9)
ASSAY CONTEXT: 10 µM
About 3,300 (8.5%) of roughly 39,000 compounds were called active. The sample holds actives, similar compounds and a random draw of the others, so the mix is not that of the screen.
Outcomes you can answer with include only these: t (active), f (inactive)

Q. What did the test return for C[C@@H]1CCCCO[C@@H](CN(C)Cc2ccc3c(c2)OCO3)[C@H](C)CN([C@H](C)CO)C(=O)c2cc(NS(=O)(=O)c3ccccc3)ccc2O1 ?
A. t

Q. Dear colleague, could you share the recorded outcome for C[C@@H]1CCCCO[C@H](CN(C)Cc2ccc3c(c2)OCO3)[C@H](C)CN([C@@H](C)CO)C(=O)c2cc(NS(=O)(=O)c3ccccc3)ccc2O1 when you have a moment?
A. t

Q. Just curious, what result did C[C@@H]1CCCCO[C@H](CN(C)Cc2ccc3c(c2)OCO3)[C@H](C)CN([C@H](C)CO)C(=O)c2cc(NS(=O)(=O)c3ccccc3)ccc2O1 get here?
A. f

Q. Assay result, entry C[C@H](CO)N1C[C@H](C)[C@@H](CN(C)Cc2ccc3c(c2)OCO3)OCCCC[C@H](C)Oc2ccc(NS(=O)(=O)c3ccccc3)cc2C1=O — outcome?
A. f

Q. Which result was noted for this compound in the test: C[C@H](CO)N1C[C@H](C)[C@H](CN(C)Cc2ccc3c(c2)OCO3)OCCCC[C@H](C)Oc2ccc(NS(=O)(=O)c3ccccc3)cc2C1=O
A. f

Okay, now this compound:
Q. State the result this test recorded for C[C@H]1CCCCO[C@@H](CN(C)Cc2ccc3c(c2)OCO3)[C@@H](C)CN([C@@H](C)CO)C(=O)c2cc(NS(=O)(=O)c3ccccc3)ccc2O1 .
A. f
